Origin of measurements: patent US20210130436A1

Listing: MFI at 33.3 nM of selected binders
- TARGET_OR_SYSTEM: T1, human CTLA4 (CTLA-4), full-length, on CHO cells (human, UniProt P16410 36-223)
- T1 construct: also called huCTLA4
- T1 sequence (P16410 36-223): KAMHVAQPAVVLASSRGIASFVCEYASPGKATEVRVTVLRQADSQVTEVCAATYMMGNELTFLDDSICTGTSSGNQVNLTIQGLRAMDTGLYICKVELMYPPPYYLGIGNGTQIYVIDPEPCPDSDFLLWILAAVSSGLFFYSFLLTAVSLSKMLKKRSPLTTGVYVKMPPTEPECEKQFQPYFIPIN
- ASSAY_OVERVIEW: flow cytometry, CHO cells stably expressing CTLA4
The reply should consist of the numeric value with the unit placed after it.

Below, 7 binders whose answers are already recorded.
BINDER	RECORDED_RESULT
variant CD80 IgV-Fc M47V/N48K (Fc fusion, not shown: small tags and cut ends; a dimerising Fc or GST) VIHVTKEVKEVATLSCGHNVSVEELAQTRIYWQKEKKMVLTMMSGDVKIWPEYKNRTIFDITNNLSIVILALRPSDEGTYECVVLKYEKDAFKREHLAEVTLSVKAD	44600 MFI
variant CD80 IgV-Fc D46V/M47L/V68M (Fc fusion, not shown: small tags and cut ends; a dimerising Fc or GST) VIHVTKEVKEVATLSCGHNVSVEELAQTRIYWQKEKKMVLTMMSGVLNIWPEYKNRTIFDITNNLSIMILALRPSDEGTYECVVLKYEKDAFKREHLAEVTLSVKAD	34700 MFI
variant CD80 IgV-Fc D46V/M47L (Fc fusion, not shown: small tags and cut ends; a dimerising Fc or GST) VIHVTKEVKEVATLSCGHNVSVEELAQTRIYWQKEKKMVLTMMSGVLNIWPEYKNRTIFDITNNLSIVILALRPSDEGTYECVVLKYEKDAFKREHLAEVTLSVKAD	49700 MFI
variant CD80 IgV-Fc E35D/M47V (Fc fusion, not shown: small tags and cut ends; a dimerising Fc or GST) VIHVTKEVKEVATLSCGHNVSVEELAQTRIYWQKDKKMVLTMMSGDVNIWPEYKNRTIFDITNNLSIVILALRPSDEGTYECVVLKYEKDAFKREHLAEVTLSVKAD	44600 MFI
variant CD80 IgV-Fc E35D/D46V/M47L/L85Q (Fc fusion, not shown: small tags and cut ends; a dimerising Fc or GST) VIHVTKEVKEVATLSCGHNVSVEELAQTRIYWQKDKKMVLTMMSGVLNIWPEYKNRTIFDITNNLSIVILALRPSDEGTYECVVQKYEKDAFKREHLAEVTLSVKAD	38200 MFI
variant CD80 IgV-Fc V68M/L85Q (Fc fusion, not shown: small tags and cut ends; a dimerising Fc or GST) VIHVTKEVKEVATLSCGHNVSVEELAQTRIYWQKEKKMVLTMMSGDMNIWPEYKNRTIFDITNNLSIMILALRPSDEGTYECVVQKYEKDAFKREHLAEVTLSVKAD	3290 MFI
variant CD80 IgV-Fc K89N (Fc fusion, not shown: small tags and cut ends; a dimerising Fc or GST) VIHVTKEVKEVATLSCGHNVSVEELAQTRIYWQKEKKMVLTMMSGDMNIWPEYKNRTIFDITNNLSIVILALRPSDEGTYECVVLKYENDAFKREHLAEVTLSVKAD	944 MFI

As a next step, examine the binder that follows.
INPUT: What does the record list as MFI at 33.3 nM for variant CD80 IgV-Fc E35D (Fc fusion, not shown: small tags and cut ends; a dimerising Fc or GST) VIHVTKEVKEVATLSCGHNVSVEELAQTRIYWQKDKKMVLTMMSGDMNIWPEYKNRTIFDITNNLSIVILALRPSDEGTYECVVLKYEKDAFKREHLAEVTLSVKAD ?
OUTPUT: 42900 MFI
